# target-system: hMC4R (Homo sapiens (Human))
# Sequence (P32245 whole entry): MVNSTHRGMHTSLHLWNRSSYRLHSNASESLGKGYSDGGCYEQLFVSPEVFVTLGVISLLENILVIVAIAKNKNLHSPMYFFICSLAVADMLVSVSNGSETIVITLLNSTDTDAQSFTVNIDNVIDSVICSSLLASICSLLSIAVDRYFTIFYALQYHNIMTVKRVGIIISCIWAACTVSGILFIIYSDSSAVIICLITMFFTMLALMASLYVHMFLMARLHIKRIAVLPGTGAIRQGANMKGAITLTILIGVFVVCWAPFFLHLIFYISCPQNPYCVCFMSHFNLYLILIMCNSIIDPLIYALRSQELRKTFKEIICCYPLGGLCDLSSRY
# run-description: LANCE cAMP assay, hMC4R PAM
# Assay type: cell-based
# reported-conditions: HEK293 cells stably expressing the hMC4R; α-MSH at an EC20 dose
reported-property: hMC4R PAM LANCE pEC50 Mean

Prompt: Provide hMC4R PAM LANCE pEC50 Mean, recorded with hMC4R (Homo sapiens (Human)), of COC(=O)c1[nH]c2ccccc2c1NC(=O)CN1CCCC2(CCC2)C1
Completion: 5.9

Prompt: Provide hMC4R PAM LANCE pEC50 Mean, recorded with hMC4R (Homo sapiens (Human)), of O=C(CN1CCC(C2CCCCC2)CC1)Nc1c(C(=O)C2CC2)[nH]c2ccc(Cl)cc12
Completion: 6.6

Prompt: Provide hMC4R PAM LANCE pEC50 Mean, recorded with hMC4R (Homo sapiens (Human)), of COC(=O)c1[nH]c2ccc(Cl)cc2c1NC(=O)C(C)N1CCC(Cc2ccccc2)CC1 (stereo not drawn)
Completion: 6

Prompt: Provide hMC4R PAM LANCE pEC50 Mean, recorded with hMC4R (Homo sapiens (Human)), of COC(=O)c1[nH]c2ccc(C)cc2c1NC(=O)CN1CCN(c2cccc(OC)c2)C(C)C1 (stereo not drawn)
Completion: 5.8

Prompt: Provide hMC4R PAM LANCE pEC50 Mean, recorded with hMC4R (Homo sapiens (Human)), of CC(=O)c1[nH]c2ccccc2c1NC(=O)CN1CCC(C2CCCCC2)CC1
Completion: 6.5

Prompt: Provide hMC4R PAM LANCE pEC50 Mean, recorded with hMC4R (Homo sapiens (Human)), of COC(=O)c1[nH]c2ccc(Br)cc2c1NC(=O)CN1CCSCC1
Completion: 5.8

Prompt: Provide hMC4R PAM LANCE pEC50 Mean, recorded with hMC4R (Homo sapiens (Human)), of COC(=O)c1[nH]c2ccc(Br)cc2c1NC(=O)CN1CCCC(C)(C)C1
Completion: 6.1

Prompt: Provide hMC4R PAM LANCE pEC50 Mean, recorded with hMC4R (Homo sapiens (Human)), of COC(=O)c1[nH]c2ccc(Cl)cc2c1NC(=O)CN1CCC(Cc2ccccc2)CC1
Completion: 6.2

Prompt: Provide hMC4R PAM LANCE pEC50 Mean, recorded with hMC4R (Homo sapiens (Human)), of O=C(CN1CCC(C2CCCC2)CC1)Nc1c(C(=O)C2CC2)[nH]c2ccc(Cl)cc12
Completion: 6.7

Prompt: Provide hMC4R PAM LANCE pEC50 Mean, recorded with hMC4R (Homo sapiens (Human)), of Cc1cccc(N2CCN(CC(=O)Nc3c(C(=O)C4CC4)[nH]c4ccc(Br)cc34)CC2)c1C
Completion: 6.4

Prompt: Provide hMC4R PAM LANCE pEC50 Mean, recorded with hMC4R (Homo sapiens (Human)), of O=C(CN1CCC(c2ccccc2)CC1)Nc1c(C(=O)C2CC2)[nH]c2ccccc12
Completion: 6.2

Prompt: Provide hMC4R PAM LANCE pEC50 Mean, recorded with hMC4R (Homo sapiens (Human)), of COC(=O)c1[nH]c2ccccc2c1NC(=O)CN1CCC(N(C)c2ccccc2)CC1
Completion: 6.3

Prompt: Provide hMC4R PAM LANCE pEC50 Mean, recorded with hMC4R (Homo sapiens (Human)), of COC(=O)c1[nH]c2ccc(Cl)cc2c1NC(=O)CN1CCCC(C)(C)C1
Completion: 6

Prompt: Provide hMC4R PAM LANCE pEC50 Mean, recorded with hMC4R (Homo sapiens (Human)), of COC(=O)c1[nH]c2ccccc2c1NC(=O)CN1CCC(N2CCc3ccccc32)CC1
Completion: 6.2

Prompt: Provide hMC4R PAM LANCE pEC50 Mean, recorded with hMC4R (Homo sapiens (Human)), of COC(=O)c1[nH]c2ccc(Br)cc2c1NC(=O)CN1CCN(C(c2ccccc2)c2ccccc2)CC1
Completion: 6.2

Prompt: Provide hMC4R PAM LANCE pEC50 Mean, recorded with hMC4R (Homo sapiens (Human)), of COC(=O)c1[nH]c2ccc(N3CCOCC3C)cc2c1NC(=O)CN1CCC(C2CCCCC2)CC1 (stereo not drawn)
Completion: 6.7

Prompt: Provide hMC4R PAM LANCE pEC50 Mean, recorded with hMC4R (Homo sapiens (Human)), of COC(=O)c1[nH]c2ccccc2c1NC(=O)C(C)N1CCC(Cc2ccccc2)CC1 (stereo not drawn)
Completion: 5.9

Prompt: Provide hMC4R PAM LANCE pEC50 Mean, recorded with hMC4R (Homo sapiens (Human)), of COC(=O)c1[nH]c2ccc(N3CCOCC3)cc2c1NC(=O)CN1CCC(C2CCCCC2)CC1
Completion: 6.6

Prompt: Provide hMC4R PAM LANCE pEC50 Mean, recorded with hMC4R (Homo sapiens (Human)), of O=C(CN1CCN(c2ccccc2)CC1)Nc1c(C(=O)C2CC2)[nH]c2ccncc12
Completion: 6.2

Prompt: Provide hMC4R PAM LANCE pEC50 Mean, recorded with hMC4R (Homo sapiens (Human)), of O=C(CN1CCC2(CCCC2)CC1)Nc1c(C(=O)C2CC2)[nH]c2ccccc12
Completion: 6.3

Prompt: Provide hMC4R PAM LANCE pEC50 Mean, recorded with hMC4R (Homo sapiens (Human)), of COC(=O)c1[nH]c2ccc(Br)cc2c1NC(=O)CN1CCN(c2ccccc2)CC1
Completion: 6.2
